# Test target: human Adenosine A2a receptor (Homo sapiens)
# Sequence (P29274 whole entry): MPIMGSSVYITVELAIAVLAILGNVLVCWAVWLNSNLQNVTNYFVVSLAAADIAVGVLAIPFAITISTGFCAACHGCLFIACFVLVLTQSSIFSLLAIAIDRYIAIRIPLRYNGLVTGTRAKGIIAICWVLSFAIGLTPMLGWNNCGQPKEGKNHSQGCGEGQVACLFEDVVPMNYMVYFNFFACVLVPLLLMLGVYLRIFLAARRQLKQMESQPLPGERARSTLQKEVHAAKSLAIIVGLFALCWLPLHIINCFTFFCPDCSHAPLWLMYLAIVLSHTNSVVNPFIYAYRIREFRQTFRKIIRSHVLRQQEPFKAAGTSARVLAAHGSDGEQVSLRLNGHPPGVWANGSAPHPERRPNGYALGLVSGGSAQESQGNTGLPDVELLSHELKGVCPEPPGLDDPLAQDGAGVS
Counter-ions that a name gives are not always drawn.
Measured parameter: pKi
Quick note: pKi means taking -log10 of the concentration in moles per liter.

Study these solved cases before continuing.
Q: Entry Cc1cc(-c2c(-c3cccc(C#N)c3)nn3ccc(NCC(C)(C)N)nc23)cc(Cl)n1 [Example 4.10, trifluoroacetate] : reported pKi = ?
A: 8.48

Q: Let us now turn to Cc1cc(-c2c(-c3cccc(C#N)c3)nn3ccc(C(=O)NCC4(O)CCNC4)nc23)cc(Cl)n1 (centres unmarked)
A: 8.17

Q: Let us now turn to Cc1cc(-c2c(-c3cccc(C#N)c3)nn3ccc(NC[C@@H](C)O)nc23)cc(Cl)n1
A: 9.22

Q: Let us now turn to Cc1cc(-c2c(-c3cccc(C#N)c3)nn3ccc(C(=O)NC45CC(O)(C4)C5)nc23)cc(Cl)n1
A: 9.10

Q: Let us now turn to Cc1cc(-c2c(-c3cccc(C#N)c3)nn3ccc(C(=O)NCC4CCNC(=O)C4)nc23)cc(C)n1 (centres unmarked)
A: 8.36

Next:
Q: Entry Fc1cccc(-c2cc3nc(NCCN4Cc5ccccc5C4)ccn3n2)c1 : reported pKi = ?
A: 6.15

Q: Let us now turn to Cc1cc(-c2c(-c3cccc(C#N)c3)nn3ccc(OC4CCNCC4)nc23)cc(Cl)n1
A: 9.22

Q: Let us now turn to N#Cc1c(-c2ncco2)nn2ccc(NCc3ccccc3)nc12
A: 7.61

The reported measurements were obtained from patent US20230203041A1.
